Biological target: rat lens aldose reductase (RLAR) (Rattus norvegicus, UniProt P07943)
Construct: from tissue; host or cells: rat lens (Sprague-Dawley) homogenate, partially purified
Assay: Rat lens aldose reductase (RLAR) inhibitory assay, DL-glyceraldehyde as substrate
Format: biochemical
Conditions: concentration 10 μg/mL; mean of triplicate; read-out: Inhibition (%) of RLAR
# Lookup of reported inhibition at 10 µg/mL keyed by entry
Answer format: value, then unit.

{"COMPOUND": "COc1cc(-c2oc3cc(O)cc(O)c3c(=O)c2O[C@@H]2O[C@H](CO)[C@@H](O)[C@H](O)[C@H]2O)ccc1O [3′-methoxyhirsutrin (7), 3′-methoxyhirsutrin]", "inhibition at 10 µg/mL": "89.7%"}

Value of measured inhibition at 10 µg/mL for the entry COc1cc(/C=C/C(=O)O)ccc1O [Ferulic acid (5), ferulic acid] : 77.2%

Sure, the documented inhibition at 10 µg/mL for O=c1c(O[C@@H]2O[C@H](CO)[C@@H](O)[C@H](O)[C@H]2O)c(-c2ccc(O)c(O)c2)oc2cc(O)cc(O)c12 [Hirsutrin (6), hirsutrin] is 86.7%

The reported inhibition at 10 µg/mL of the compound COc1cc(C(=O)O)ccc1O [Vanillic acid (2), vanillic acid] was 20.3%

Entry O=c1c(O)c(-c2ccc(O)c(O)c2)oc2cc(O)cc(O)c12 [Quercetin, quercetin, reference compound] — recorded inhibition at 10 µg/mL = 83%

###

Molecular target: rat lens aldose reductase (RLAR) (Rattus norvegicus, UniProt P07943)
Construct: from tissue; host or cells: rat lens (Sprague-Dawley) homogenate, partially purified
Assay: Rat lens aldose reductase (RLAR) inhibitory assay, DL-glyceraldehyde as substrate
Format: biochemical
Conditions: least-squares regression of log concentration vs inhibitory activity; read-out: IC50 (μg/mL) RLAR (converted)
The molecules listed here are annotated with their IC50.
Response body: numeric value in µM, unit text excluded.

Summary for this molecule, O=c1c(O[C@@H]2O[C@H](CO)[C@@H](O)[C@H](O)[C@H]2O)c(-c2ccc(O)c(O)c2)oc2cc(O)cc(O)c12 : IC50 is 4.78

// IC50 lookup, molecule = COc1cc(-c2oc3cc(O)cc(O)c3c(=O)c2O[C@@H]2O[C@H](CO)[C@@H](O)[C@H](O)[C@H]2O)ccc1O , result: 5.66

// IC50 value for O=C(O)C=Cc1ccc(O)cc1 [p-hydroxycinnamic acid (4), p-hydroxycinnamic acid] : 36.7

Note to self: IC50 recorded for O=C(O)c1c(O)cc(O)cc1O [2,4,6-trihydroxybenzoic acid (3), 2,4,6-trihydroxybenzoic acid] was 34.8

Briefly, IC50 measured for O=C(O)CC(=O)OC[C@H]1O[C@@H](Oc2cc3c(O)cc(O)cc3[o+]c2-c2ccc(O)c(O)c2)[C@H](O)[C@@H](O)[C@@H]1O [Cyanidin-3-(6′′-malonylglucoside) (11), cyanidin 3-(6′′-malonylglucoside)] : 11.7

So for COc1cc(/C=C/C(=O)O)ccc1O , the logged IC50 turned out to be 21.8

###

Target: rat lens aldose reductase (RLAR) (Rattus norvegicus, UniProt P07943)
Construct: from tissue; host or cells: rat lens (Sprague-Dawley) homogenate, partially purified
Test: Rat lens aldose reductase (RLAR) inhibitory assay, DL-glyceraldehyde as substrate
Assay type: biochemical
Conditions: concentration 1 μg/mL; mean of triplicate
Where inhibition at 1 µg/mL equals or exceeds 20%, the correct label is true; where it does not, the label is false.

Below, 5 molecules whose answers are already recorded.
{"MOLECULE": "O=C(O)CC(=O)OC[C@H]1O[C@@H](Oc2cc3c(O)cc(O)cc3[o+]c2-c2ccc(O)c(O)c2)[C@H](O)[C@@H](O)[C@@H]1O [Cyanidin-3-(6′′-malonylglucoside) (11), cyanidin 3-(6′′-malonylglucoside)]", "ASSIGNED_CATEGORY": "false"}
{"MOLECULE": "O=c1c(O[C@@H]2O[C@H](CO)[C@@H](O)[C@H](O)[C@H]2O)c(-c2ccc(O)c(O)c2)oc2cc(O)cc(O)c12 [Hirsutrin (6), hirsutrin]", "ASSIGNED_CATEGORY": "true"}
{"MOLECULE": "O=C(O)C=Cc1ccc(O)cc1 [p-hydroxycinnamic acid (4), p-hydroxycinnamic acid]", "ASSIGNED_CATEGORY": "false"}
{"MOLECULE": "O=C(O)c1c(O)cc(O)cc1O [2,4,6-trihydroxybenzoic acid (3), 2,4,6-trihydroxybenzoic acid]", "ASSIGNED_CATEGORY": "false"}
{"MOLECULE": "O=c1c(O)c(-c2ccc(O)c(O)c2)oc2cc(O)cc(O)c12 [Quercetin, quercetin, reference compound]", "ASSIGNED_CATEGORY": "true"}

State whether the measured inhibition at 1 µg/mL reaches 20%, counting equality as reaching it, for COc1cc(-c2oc3cc(O)cc(O)c3c(=O)c2O[C@@H]2O[C@H](CO)[C@@H](O)[C@H](O)[C@H]2O)ccc1O [3′-methoxyhirsutrin (7), 3′-methoxyhirsutrin]
false

Decide: inhibition at 1 µg/mL of COc1cc(/C=C/C(=O)O)ccc1O [Ferulic acid (5), ferulic acid] >= 20%?
false

Just for reference, paper PMC3613087 is where these values come from.
